Listed here are molecules together with their documented pKi.
Target: 5-hydroxytryptamine receptor 2C (Homo sapiens)
Sequence (P28335 whole entry): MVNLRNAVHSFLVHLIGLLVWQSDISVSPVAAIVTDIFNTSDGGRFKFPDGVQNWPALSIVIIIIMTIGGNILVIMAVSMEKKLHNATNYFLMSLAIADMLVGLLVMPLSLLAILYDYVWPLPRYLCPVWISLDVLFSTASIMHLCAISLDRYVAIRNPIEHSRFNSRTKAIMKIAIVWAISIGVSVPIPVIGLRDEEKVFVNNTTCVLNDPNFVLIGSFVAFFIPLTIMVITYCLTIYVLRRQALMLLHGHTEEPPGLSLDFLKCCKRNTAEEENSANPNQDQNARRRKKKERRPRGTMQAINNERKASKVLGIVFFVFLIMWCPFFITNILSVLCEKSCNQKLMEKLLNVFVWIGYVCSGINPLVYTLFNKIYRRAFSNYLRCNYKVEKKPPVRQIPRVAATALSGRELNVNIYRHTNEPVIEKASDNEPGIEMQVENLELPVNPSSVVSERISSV
pKi: −log10 of the molar value.

[
  {
    "Cpd Smiles": "COc1cc2c(cc1OC)C1=NO[C@@H](CN3CCN(C/C=C/c4ccccc4)CC3)[C@@H]1CO2",
    "pKi": "< 6.00"
  },
  {
    "Cpd Smiles": "COc1cc2c(cc1OC)C1=NO[C@@H](CN3CCN(C/C(C)=C/c4ccccc4)CC3)[C@@H]1CO2",
    "pKi": "< 6.00"
  }
]

###

Molecular target: Adrenergic receptor alpha-1 (Homo sapiens, UniProt P35348+P25100+P35368)
Experiment: Inhibition of [3H]- prazosin binding to alpha-1 adrenergic receptor
Type: protein assay

[
  {
    "Compound": "Fc1ccc2c(c1)CC(CC1CN=CN1)C2 (stereo unspecified)",
    "Ki": "> 1000 nM"
  },
  {
    "Compound": "COc1cc2c(cc1OC)C1=NO[C@@H](CN3CCN(C/C(C)=C/c4ccccc4)CC3)[C@@H]1CO2",
    "Ki": "380 nM"
  },
  {
    "Compound": "COc1cc2c(cc1OC)C1=NO[C@@H](CN3CCN(C/C=C/c4ccccc4)CC3)[C@@H]1CO2",
    "Ki": "> 1000 nM"
  },
  {
    "Compound": "COc1cc2c(cc1OC)C1=NO[C@@H](CN3CCN(Cc4ccc5ccccc5c4)CC3)[C@@H]1CO2",
    "Ki": "> 1000 nM"
  },
  {
    "Compound": "COc1cccc2c1CCC[C@H]2CN(C)CCc1ccc2ccoc2c1",
    "Ki": "> 1000 nM"
  },
  {
    "Compound": "COc1cc2c(cc1OC)C1=NO[C@@H](CN3CCN(C/C=C(\\C)c4ccccc4)CC3)[C@@H]1CO2",
    "Ki": "> 1000 nM"
  }
]

###

Target: Histamine H1 receptor (Homo sapiens)
Sequence (P35367 whole entry): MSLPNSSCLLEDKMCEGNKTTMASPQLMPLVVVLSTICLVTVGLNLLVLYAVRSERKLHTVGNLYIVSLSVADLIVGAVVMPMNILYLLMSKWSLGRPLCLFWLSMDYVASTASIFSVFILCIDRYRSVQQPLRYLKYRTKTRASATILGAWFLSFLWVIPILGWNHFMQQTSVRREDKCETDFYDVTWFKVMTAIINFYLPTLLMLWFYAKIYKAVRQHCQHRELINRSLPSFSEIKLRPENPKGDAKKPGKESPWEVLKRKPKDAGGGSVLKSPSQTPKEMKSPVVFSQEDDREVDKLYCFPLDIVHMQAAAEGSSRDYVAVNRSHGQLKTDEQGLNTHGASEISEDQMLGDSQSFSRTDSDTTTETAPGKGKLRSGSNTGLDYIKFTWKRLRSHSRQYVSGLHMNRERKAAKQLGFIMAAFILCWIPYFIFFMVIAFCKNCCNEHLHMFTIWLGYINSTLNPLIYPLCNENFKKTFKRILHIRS
Test: Inhibition of [3H]pyrilamine binding to Histamine H1 receptor
pKi: −log10 of the molar value.

[
  {
    "Compound": "Fc1ccc2c(c1)CC(CC1CN=CN1)C2 (stereo not drawn)",
    "pKi": "< 6.00"
  },
  {
    "Compound": "COc1cccc2c1CCC[C@H]2CN(C)CCc1ccc2ccoc2c1",
    "pKi": "< 6.00"
  },
  {
    "Compound": "COc1cc2c(cc1OC)C1=NO[C@@H](CN3CCN(Cc4ccc5ccccc5c4)CC3)[C@@H]1CO2",
    "pKi": 6.34
  }
]

###

Biological target: 5-hydroxytryptamine receptor 1A (Homo sapiens)
Sequence (P08908 whole entry): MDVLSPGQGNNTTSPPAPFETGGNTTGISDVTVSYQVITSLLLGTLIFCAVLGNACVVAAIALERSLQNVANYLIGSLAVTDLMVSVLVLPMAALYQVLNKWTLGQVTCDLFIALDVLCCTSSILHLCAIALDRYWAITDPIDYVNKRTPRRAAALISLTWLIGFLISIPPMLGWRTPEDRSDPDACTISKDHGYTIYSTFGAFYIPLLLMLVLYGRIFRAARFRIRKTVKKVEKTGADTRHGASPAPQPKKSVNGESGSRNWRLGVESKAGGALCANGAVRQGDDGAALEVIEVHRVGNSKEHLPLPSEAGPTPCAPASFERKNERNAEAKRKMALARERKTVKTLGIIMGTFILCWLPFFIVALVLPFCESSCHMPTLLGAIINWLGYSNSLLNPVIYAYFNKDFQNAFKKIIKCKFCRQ
Assay: Inhibition of [3H]8-OH-DPAT binding to 5-hydroxytryptamine 1A receptor
pKi: −log10 of the molar value.
Listed here are compounds together with their documented pKi.

[
  {
    "Compound": "Fc1ccc2c(c1)CC(CC1CN=CN1)C2 (configuration not stated)",
    "pKi": 6.11
  },
  {
    "Compound": "COc1cc2c(cc1OC)C1=NO[C@@H](CN3CCN(C/C(C)=C/c4ccccc4)CC3)[C@@H]1CO2",
    "pKi": 6.32
  }
]

###

# Sodium-dependent dopamine transporter (Rattus norvegicus): Ki values follow
# Sequence (P23977 whole entry): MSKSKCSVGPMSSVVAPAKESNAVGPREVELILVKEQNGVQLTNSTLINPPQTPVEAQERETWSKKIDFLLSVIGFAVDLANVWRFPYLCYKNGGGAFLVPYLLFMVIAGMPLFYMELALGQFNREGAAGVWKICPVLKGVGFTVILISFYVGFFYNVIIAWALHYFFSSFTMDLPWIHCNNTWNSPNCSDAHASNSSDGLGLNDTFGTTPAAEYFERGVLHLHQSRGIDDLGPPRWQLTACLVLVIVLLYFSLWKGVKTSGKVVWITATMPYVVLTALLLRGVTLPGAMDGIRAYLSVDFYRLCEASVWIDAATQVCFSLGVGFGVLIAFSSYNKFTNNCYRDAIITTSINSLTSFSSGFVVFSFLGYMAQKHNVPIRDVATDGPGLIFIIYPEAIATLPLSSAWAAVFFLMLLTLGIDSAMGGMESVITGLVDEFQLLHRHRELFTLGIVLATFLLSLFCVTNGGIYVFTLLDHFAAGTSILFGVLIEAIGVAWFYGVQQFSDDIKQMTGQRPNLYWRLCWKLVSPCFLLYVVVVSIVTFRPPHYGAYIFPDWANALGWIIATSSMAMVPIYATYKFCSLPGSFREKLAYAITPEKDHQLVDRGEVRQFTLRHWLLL

[
  {
    "Cpd Smiles": "COc1cccc2c1CCC[C@H]2CN(C)CCc1ccc2ccoc2c1",
    "Units": "nM",
    "Rel": ">",
    "Ki": 1000
  },
  {
    "Cpd Smiles": "COc1cc2c(cc1OC)C1=NO[C@@H](CN3CCN(Cc4ccc5ccccc5c4)CC3)[C@@H]1CO2",
    "Units": "nM",
    "Rel": "=",
    "Ki": 246
  }
]

###

Sequence of the target: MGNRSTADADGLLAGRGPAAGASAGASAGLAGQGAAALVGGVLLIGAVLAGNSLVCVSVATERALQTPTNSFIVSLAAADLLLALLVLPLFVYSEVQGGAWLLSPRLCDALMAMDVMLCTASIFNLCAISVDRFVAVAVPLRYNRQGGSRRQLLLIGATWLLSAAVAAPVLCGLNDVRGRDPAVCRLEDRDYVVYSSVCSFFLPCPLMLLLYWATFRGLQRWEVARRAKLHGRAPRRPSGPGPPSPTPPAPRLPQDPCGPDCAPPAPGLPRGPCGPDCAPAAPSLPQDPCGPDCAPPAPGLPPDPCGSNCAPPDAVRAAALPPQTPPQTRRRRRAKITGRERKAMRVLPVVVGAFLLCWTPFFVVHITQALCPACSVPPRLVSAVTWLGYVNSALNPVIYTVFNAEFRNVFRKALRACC
Metric: Ki

[
  {
    "Cpd Smiles": "COc1cc2c(cc1OC)C1=NO[C@@H](CN3CCN(Cc4ccc5ccccc5c4)CC3)[C@@H]1CO2",
    "Metric": "Ki",
    "Reported": "> 1 µM"
  },
  {
    "Cpd Smiles": "COc1cc2c(cc1OC)C1=NO[C@@H](CN3CCN(C/C=C(\\C)c4ccccc4)CC3)[C@@H]1CO2",
    "Metric": "Ki",
    "Reported": "> 1 µM"
  }
]

###

Target: 5-hydroxytryptamine receptor 7 (Homo sapiens, UniProt P34969)
Sequence (P34969 whole entry): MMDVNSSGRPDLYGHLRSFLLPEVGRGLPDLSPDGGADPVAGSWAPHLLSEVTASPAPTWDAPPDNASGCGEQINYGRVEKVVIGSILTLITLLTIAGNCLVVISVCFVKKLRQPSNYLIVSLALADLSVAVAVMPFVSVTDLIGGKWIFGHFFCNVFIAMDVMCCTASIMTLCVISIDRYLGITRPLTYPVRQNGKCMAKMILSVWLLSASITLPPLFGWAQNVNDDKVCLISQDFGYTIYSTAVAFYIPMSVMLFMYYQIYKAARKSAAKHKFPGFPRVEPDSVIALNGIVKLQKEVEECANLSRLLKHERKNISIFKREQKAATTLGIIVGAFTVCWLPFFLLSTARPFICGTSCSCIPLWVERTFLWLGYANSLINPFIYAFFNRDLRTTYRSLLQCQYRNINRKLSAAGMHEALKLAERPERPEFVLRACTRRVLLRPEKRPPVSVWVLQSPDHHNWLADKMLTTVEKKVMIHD
Metric: Ki

[
  {
    "Cpd Smiles": "COc1cc2c(cc1OC)C1=NO[C@@H](CN3CCN(C/C(C)=C/c4ccccc4)CC3)[C@@H]1CO2",
    "Target": "5-hydroxytryptamine receptor 7 (Homo sapiens, UniProt P34969)",
    "Reported": "> 1000 nM"
  },
  {
    "Cpd Smiles": "COc1cc2c(cc1OC)C1=NO[C@@H](CN3CCN(Cc4ccc5ccccc5c4)CC3)[C@@H]1CO2",
    "Target": "5-hydroxytryptamine receptor 7 (Homo sapiens, UniProt P34969)",
    "Reported": "> 1000 nM"
  },
  {
    "Cpd Smiles": "COc1cc2c(cc1OC)C1=NO[C@@H](CN3CCN(C/C=C/c4ccccc4)CC3)[C@@H]1CO2",
    "Target": "5-hydroxytryptamine receptor 7 (Homo sapiens, UniProt P34969)",
    "Reported": "> 1000 nM"
  }
]

###

Listed here are compounds together with their documented pKi.
Target: UniProt Q9WTR4
Sequence (Q9WTR4 whole entry): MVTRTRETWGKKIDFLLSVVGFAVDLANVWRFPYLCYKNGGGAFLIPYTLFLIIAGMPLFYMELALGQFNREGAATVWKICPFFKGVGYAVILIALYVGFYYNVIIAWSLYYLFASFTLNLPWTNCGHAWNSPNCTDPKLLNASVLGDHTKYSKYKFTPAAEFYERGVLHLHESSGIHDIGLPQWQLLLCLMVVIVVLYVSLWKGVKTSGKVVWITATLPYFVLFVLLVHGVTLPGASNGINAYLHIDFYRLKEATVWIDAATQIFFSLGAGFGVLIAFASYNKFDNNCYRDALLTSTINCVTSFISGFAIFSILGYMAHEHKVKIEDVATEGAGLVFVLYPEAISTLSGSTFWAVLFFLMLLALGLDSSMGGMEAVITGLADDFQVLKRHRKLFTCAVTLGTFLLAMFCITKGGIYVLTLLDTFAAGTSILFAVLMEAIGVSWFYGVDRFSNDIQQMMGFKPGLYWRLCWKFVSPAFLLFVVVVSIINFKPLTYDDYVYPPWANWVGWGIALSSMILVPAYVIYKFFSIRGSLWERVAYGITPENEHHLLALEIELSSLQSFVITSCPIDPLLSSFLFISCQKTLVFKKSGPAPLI
Test: Inhibition of [3H]-nisoxetine binding to Norepinephrine transporter from rat cortex
pKi: −log10 of the molar value.
Metric: pKi

[
  {
    "Cpd Smiles": "COc1cc2c(cc1OC)C1=NO[C@@H](CN3CCN(C/C=C/c4ccccc4)CC3)[C@@H]1CO2",
    "Metric": "pKi",
    "Rel": "=",
    "Reported": 6.88
  },
  {
    "Cpd Smiles": "COc1cc2c(cc1OC)C1=NO[C@@H](CN3CCN(C/C=C(\\C)c4ccccc4)CC3)[C@@H]1CO2",
    "Metric": "pKi",
    "Rel": "=",
    "Reported": 6.66
  },
  {
    "Cpd Smiles": "COc1cccc2c1CCC[C@H]2CN(C)CCc1ccc2ccoc2c1",
    "Metric": "pKi",
    "Rel": "<",
    "Reported": 6.00
  },
  {
    "Cpd Smiles": "COc1cc2c(cc1OC)C1=NO[C@@H](CN3CCN(C/C(C)=C/c4ccccc4)CC3)[C@@H]1CO2",
    "Metric": "pKi",
    "Rel": "=",
    "Reported": 6.75
  }
]

###

Biological target: Alpha-2C adrenergic receptor (Homo sapiens)
Sequence (P18825 whole entry): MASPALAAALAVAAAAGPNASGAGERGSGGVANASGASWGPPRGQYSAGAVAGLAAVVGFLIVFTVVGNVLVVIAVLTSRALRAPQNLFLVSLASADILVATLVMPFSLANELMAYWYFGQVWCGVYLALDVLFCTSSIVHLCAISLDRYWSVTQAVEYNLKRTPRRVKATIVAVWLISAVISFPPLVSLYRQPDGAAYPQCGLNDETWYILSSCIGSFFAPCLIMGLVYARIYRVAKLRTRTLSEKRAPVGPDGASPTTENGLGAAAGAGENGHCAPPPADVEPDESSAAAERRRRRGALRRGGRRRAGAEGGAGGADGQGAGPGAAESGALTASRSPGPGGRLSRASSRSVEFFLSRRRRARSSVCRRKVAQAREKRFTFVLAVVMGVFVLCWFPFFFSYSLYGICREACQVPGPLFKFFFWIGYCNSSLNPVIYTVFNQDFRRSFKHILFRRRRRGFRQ
Assay: Binding affinity for alpha-2C adrenergic receptor

[
  {
    "Cpd Smiles": "COc1ccc2c(c1)C=C[C@@H]1C2=NO[C@H]1CN1CCN(C/C=C/c2ccccc2)CC1",
    "Rel": "=",
    "Ki, nM": 3.9
  },
  {
    "Cpd Smiles": "COc1cc2c(cc1OC)C1=NO[C@@H](CN3CCN(C/C(C)=C/c4ccccc4)CC3)[C@@H]1CN2",
    "Rel": "=",
    "Ki, nM": 0.1
  },
  {
    "Cpd Smiles": "C(=C\\c1ccccc1)/CN1CCN(C[C@@H]2ON=C3c4ccccc4OC[C@H]32)CC1",
    "Rel": "=",
    "Ki, nM": 1.7
  },
  {
    "Cpd Smiles": "COc1cc2c(cc1OC)C1=NO[C@@H](CN3CCN(Cc4ccc5ncccc5c4)CC3)[C@@H]1CN2",
    "Rel": ">",
    "Ki, nM": 1000
  },
  {
    "Cpd Smiles": "CC(=O)Oc1ccc2c(c1)OC[C@@H]1C2=NO[C@H]1CN1CCN(C/C(C)=C/c2ccccc2)CC1",
    "Rel": "=",
    "Ki, nM": 0.2
  },
  {
    "Cpd Smiles": "COc1ccc2c(c1)C=C[C@@H]1C2=NO[C@H]1CN1CCN(Cc2ccc3ccccc3c2)CC1",
    "Rel": "=",
    "Ki, nM": 6.3
  },
  {
    "Cpd Smiles": "COCC(=O)Oc1ccc2c(c1)OC[C@@H]1C2=NO[C@H]1CN1CCN(C/C(C)=C/c2ccccc2)CC1",
    "Rel": "=",
    "Ki, nM": 0.2
  },
  {
    "Cpd Smiles": "COc1cc2c(cc1OC)C1=NO[C@@H](CN3CCN(Cc4ccc5ccccc5c4)CC3)[C@@H]1CN2",
    "Rel": "=",
    "Ki, nM": 12
  }
]
